All figures here come from ChEMBL document CHEMBL3988442.

Attribute: Percent Effect
Target: Ubiquitin-activating enzyme e1, putative (Leishmania donovani (strain BPK282A1)) (UniProt E9BSI1)
Sequence (whole entry): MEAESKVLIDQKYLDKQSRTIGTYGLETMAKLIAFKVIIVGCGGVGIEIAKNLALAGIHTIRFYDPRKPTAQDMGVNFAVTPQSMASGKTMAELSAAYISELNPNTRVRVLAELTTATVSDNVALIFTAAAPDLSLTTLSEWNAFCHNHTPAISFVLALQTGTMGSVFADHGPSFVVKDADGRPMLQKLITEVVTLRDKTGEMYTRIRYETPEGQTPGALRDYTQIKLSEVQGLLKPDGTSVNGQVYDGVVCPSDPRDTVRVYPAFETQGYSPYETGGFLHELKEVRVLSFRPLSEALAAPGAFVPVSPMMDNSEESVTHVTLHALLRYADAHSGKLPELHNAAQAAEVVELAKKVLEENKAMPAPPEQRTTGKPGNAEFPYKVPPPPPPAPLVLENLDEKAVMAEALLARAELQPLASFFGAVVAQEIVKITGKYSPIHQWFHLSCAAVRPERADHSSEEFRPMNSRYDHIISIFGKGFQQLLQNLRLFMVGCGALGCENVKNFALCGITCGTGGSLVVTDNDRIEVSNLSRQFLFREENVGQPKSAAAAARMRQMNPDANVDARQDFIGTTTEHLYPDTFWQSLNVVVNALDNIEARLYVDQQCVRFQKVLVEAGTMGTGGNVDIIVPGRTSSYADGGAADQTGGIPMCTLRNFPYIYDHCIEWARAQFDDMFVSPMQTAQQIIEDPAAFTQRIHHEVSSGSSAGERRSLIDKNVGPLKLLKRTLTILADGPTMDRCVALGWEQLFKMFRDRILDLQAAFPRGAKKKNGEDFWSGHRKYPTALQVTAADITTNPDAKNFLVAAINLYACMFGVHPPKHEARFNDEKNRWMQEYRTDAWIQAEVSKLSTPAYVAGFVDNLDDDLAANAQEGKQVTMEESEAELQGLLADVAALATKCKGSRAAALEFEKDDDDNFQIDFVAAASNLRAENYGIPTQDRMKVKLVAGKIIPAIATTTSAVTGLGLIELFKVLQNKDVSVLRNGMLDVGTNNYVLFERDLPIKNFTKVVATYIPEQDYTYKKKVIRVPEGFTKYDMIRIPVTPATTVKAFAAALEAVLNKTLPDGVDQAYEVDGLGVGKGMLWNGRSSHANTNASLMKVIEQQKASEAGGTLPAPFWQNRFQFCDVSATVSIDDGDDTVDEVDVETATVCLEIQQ
Assay: Leishmania donovani Ubiquitin Activating Enzyme (LdE1)
Format: functional
Design: scale not given: direction of the effect not stated beside the values
Details: 30 µM
Measured potencies and affinities stand elsewhere.
I only need the number, in %, no unit after it.

INSERT INTO results (molecule, measured_value) VALUES
  ('CN(C(=O)Cn1nc(-c2cccs2)ccc1=O)C1CCS(=O)(=O)C1 (stereo unspecified)', 0),
  ('CC(C)Nc1nc(N2CCOCC2)nc2c1CN(Cc1ccoc1)CC2', 5.33),
  ('Cc1nc(CN2CCN(C(=O)c3ccn(C)c(=O)c3)CC2)cs1', 19),
  ('c1ccc(-n2ncc(CNCC3CCCN3c3cccnn3)n2)cc1 (stereo unspecified)', -28.9),
  ('Fc1ccc(CN2CCCN(Cc3cscn3)CC2)cc1', 18.2);

Now, please, on to the next molecule.
Query :: For CCc1ncc2c(n1)CN(Cc1nnc(C)o1)CC2 , write its Percent Effect.
Result :: 2.74

---

target: Sialic acid-binding Ig-like lectin 9 (Homo sapiens) (UniProt Q9Y336); test: Hs-Siglec9 ALPHAscreen SOP 20170721; design: scale not given: direction of the effect not stated beside the values; settings: 10 µM
Sequence (Q9Y336 whole entry): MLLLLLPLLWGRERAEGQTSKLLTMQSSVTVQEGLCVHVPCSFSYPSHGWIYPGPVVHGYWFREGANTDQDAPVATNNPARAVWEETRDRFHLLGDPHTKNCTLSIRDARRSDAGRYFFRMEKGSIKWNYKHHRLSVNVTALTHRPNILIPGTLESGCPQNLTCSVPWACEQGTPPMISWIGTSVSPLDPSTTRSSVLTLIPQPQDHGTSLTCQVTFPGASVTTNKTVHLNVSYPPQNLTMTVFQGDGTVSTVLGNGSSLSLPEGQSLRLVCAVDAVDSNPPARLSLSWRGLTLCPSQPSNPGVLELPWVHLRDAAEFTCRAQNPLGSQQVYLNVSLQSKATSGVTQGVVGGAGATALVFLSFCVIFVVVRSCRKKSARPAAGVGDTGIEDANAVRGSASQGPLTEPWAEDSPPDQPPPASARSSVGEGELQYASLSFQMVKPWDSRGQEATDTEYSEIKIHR
READOUT KIND: Percent Effect (%)
I only need the number, in %, no unit after it.

INSERT INTO assay_data (compound, display_unit, measured_value) VALUES
  ('CN1CCN(C[C@@H]2OC[C@H]3CN(Cc4cccc(F)c4)CC[C@H]32)CC1', '%', 4.78),
  ('COc1c(C2CCCN2C(=O)c2ccc(Cl)o2)c(C)nn1C (centres undefined)', '%', 21.4),
  ('COc1c(CNC2CCN(C(C)(C)C)CC2)c(C(C)C)nn1C', '%', -3.36),
  ('CC(C)C(C(=O)N1CCCN(Cc2nccn2C)CC1)N1CCCC1 (centres undefined)', '%', -3.06),
  ('Cc1nc(N2CCCC2)nc2c1CN(C(C)C)CC2', '%', 4.47);

Query :: For O=C(NCCOc1ccc(F)c(F)c1)NCc1cccc(CO)c1 , write its Percent Effect.
Result :: 4.96

Query :: For O=C(c1cnc(C2CC2)s1)N1CCCCC1Cn1cccn1 (centres undefined) , write its Percent Effect.
Result :: -0.611

Query :: For Cc1ccccc1-n1ncc(C(=O)N2CCCC2c2cnn(C)c2)c1C (centres undefined) , write its Percent Effect.
Result :: -5.79

Query :: For CCOc1ccc(N2CCCN=C2NC(=O)c2cccc(Cl)c2)cc1 , write its Percent Effect.
Result :: 2.2

Query :: For CCN(CC1CCOC1)C(=O)c1ccccc1N1CCOCC1 (centres undefined) , write its Percent Effect.
Result :: -10.1

---

Attribute: Percent Effect
target: Arginase-2, mitochondrial (Homo sapiens); test: in vitro enzyme assay to detect the production of urea directly proportional to the activity of Arginase II; type: functional; design: scale not given: in the data most compounds retested in dose-response had high values; conditions: 33.3 µM
Entry format: amount then unit.

Here's what some known entries look like.
INSERT INTO assay_data (compound, measured_value) VALUES
  ('CC(NC(=O)COc1ccc(F)cc1)c1nnc2n1CCCCC2 (stereo unspecified)', '-8.02%'),
  ('CC(C)c1ncncc1C(=O)N1CCN(Cc2cscn2)CC1', '2.03%'),
  ('CN1CC(=O)N(c2cccnc2)CC12CCN(C(=O)c1cccnc1)C2 (stereo unspecified)', '-53.9%'),
  ('CC(C)c1nc(C2CCCN(C(=O)Cc3cccnc3)C2)no1 (stereo unspecified)', '-1.6%'),
  ('O=C(c1cc2c(s1)CCC2)N1CCCCC1Cn1cccn1 (stereo unspecified)', '-3.88%');

Query :: For Cc1cc(C(F)(F)F)nn1CC(C)C(=O)Nc1ccncc1 (stereo unspecified) , write its Percent Effect.
Result :: -2.64%

---

target: Proteasome subunit beta (Trypanosoma cruzi) (UniProt O96673); assay: Trypanosoma cruzi proteasome chymotrypsin-like activity (TcProtChymo) assay.; assay type: functional; parameters: scale not given: in the data most compounds retested in dose-response had high values; conditions: 9.37 µM
Sequence (O96673 as listed by the source): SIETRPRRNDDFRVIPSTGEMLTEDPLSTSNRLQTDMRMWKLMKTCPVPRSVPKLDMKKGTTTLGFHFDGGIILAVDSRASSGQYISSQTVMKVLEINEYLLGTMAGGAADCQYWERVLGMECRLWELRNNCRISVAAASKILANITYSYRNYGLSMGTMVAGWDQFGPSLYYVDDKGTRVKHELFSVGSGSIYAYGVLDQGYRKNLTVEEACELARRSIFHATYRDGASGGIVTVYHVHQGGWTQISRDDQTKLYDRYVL
READOUT KIND: Percent Effect (%)
I only need the number, in %, no unit after it.

Here's what some known entries look like.
INSERT INTO assay_data (compound, readout_kind, display_unit, measured_value) VALUES
  ('CC(C)c1ccc(CN2CCC3(CCCN(c4nncs4)C3)C2)cc1 (centres undefined)', 'Percent Effect', '%', 1.97),
  ('Cc1nnc(N2CCC(CN(C)C(C)C)CC2)c(C#N)c1C', 'Percent Effect', '%', 3.64),
  ('Cc1cccc(-c2ccc(C(=O)NCC3CCOC3)c(=O)[nH]2)c1 (centres undefined)', 'Percent Effect', '%', -0.18),
  ('Cc1occc1C(=O)N1CCc2ncnc(-c3cnn(C)c3)c2CC1', 'Percent Effect', '%', 4.21),
  ('O=C([C@@H]1CCO[C@@H]2CCN(Cc3cccnc3)C[C@H]21)N1CCCCO1', 'Percent Effect', '%', 11.5);

Query :: For Cc1nnc(Nc2cccc(C3CCN(CCO)CC3)n2)s1 , write its Percent Effect.
Result :: 4.85

Query :: For O=C1N(Cc2ccccc2F)CCCC12CCN(C1CCSCC1)C2 (centres undefined) , write its Percent Effect.
Result :: 8.37

Query :: For c1ccc(Cn2cccn2)c(CNCC2CNc3ccnn3C2)c1 (centres undefined) , write its Percent Effect.
Result :: 13.3

Query :: For Cc1csc(N2CCN(C(=O)CCNc3ncccn3)CC2)n1 , write its Percent Effect.
Result :: 5.04

Query :: For O=C1N(c2ccc(Br)cc2)Cc2nc(=O)[nH]n21 , write its Percent Effect.
Result :: 4.44

Query :: For CN(CC1COc2ccccc2O1)C(=O)NCCCn1ccnc1 (centres undefined) , write its Percent Effect.
Result :: -0.835

---

tested on: Trypanosoma cruzi; assay: Trypanosoma cruzi phosphomannomutase and mannose-1-phosphate guanylyltransferase assay; format: functional; set-up: scale not given: direction of the effect not stated beside the values; settings: 10 µM
Attribute: Percent Effect
I only need the number, in %, no unit after it.

INSERT INTO assay_data (compound, measured_value) VALUES
  ('COCCN(C)C(=O)Cn1cccc(OC)c1=O', -8.53);

Now, please, on to the next compound.
Query :: For O=C(c1cnccn1)N1CCOCC2(CCN(C3CCOCC3)C2)C1 (stereo unspecified) , write its Percent Effect.
Result :: 3.54
